# protocolText: Single ascending dose and food-effect pharmacokinetics of naringin tablets in healthy humans
# Format: in vivo, human
# testParameters: female, human, plasma, po, 160 mg, naringin 160 mg p.o. single dose
measurementType: AUC(0-t)
Show the value, then the unit it is measured in.

Challenge: Give recorded AUC(0-t). C[C@@H]1O[C@@H](O[C@H]2[C@H](Oc3cc(O)c4c(c3)O[C@H](c3ccc(O)cc3)CC4=O)O[C@H](CO)[C@@H](O)[C@@H]2O)[C@H](O)[C@H](O)[C@H]1O
Response given: 17.8 ng·h/mL

###

# protocolText: Single ascending dose and food-effect pharmacokinetics of naringin tablets in healthy humans
# Type: in vivo, human
# testParameters: female, human, plasma, po, 80 mg, naringin 80 mg p.o. single dose
measurementType: AUC(0-inf) (ng·h/mL)
Express it in ng·h/mL; write the number only.

Challenge: Give recorded AUC(0-inf). C[C@@H]1O[C@@H](O[C@H]2[C@H](Oc3cc(O)c4c(c3)O[C@H](c3ccc(O)cc3)CC4=O)O[C@H](CO)[C@@H](O)[C@@H]2O)[C@H](O)[C@H](O)[C@H]1O
Response given: 11.5
